# assay comment: Caspase-3/7 induction in CHO-K1 cells by small molecules, qHTS cell viability counter screen (AID 1346979); further: nearly all actives have a fitted effect of over 35% in size
# test context: CellTiter-Fluor fluorescence, 17 h; series mostly up to 92.4 µM
Inconclusive results are not listed. Calls of active or inactive are those of the source. The call rests on the fitted dose curve; in most records, active means well fitted cell-killing curve with a large enough effect in the repeat runs; inconclusive means weak or mixed curves, or effect the other way; inactive means no such curve, though single readings can be large or run the other way.
Pick one and only one: active, inactive

Study these solved cases before continuing.
c1ccc2c(c1)ccc1ncccc12	inactive
CC(=O)Oc1ccc(C(c2ccc(OC(C)=O)cc2)c2ccccn2)cc1	inactive
CCCCCCCC/C=C\CCCCCCCC(=O)O	inactive
Cc1ccc(S(=O)(=O)NCl)cc1	inactive
C=C[C@@]1(C)CC(=O)[C@]2(O)[C@@]3(C)[C@@H](O)CCC(C)(C)[C@@H]3[C@H](O)[C@H](OC(C)=O)[C@@]2(C)O1	active
C=CC(C)(O)CCC=C(C)C (centres undefined)	inactive

Ask | Which result was noted for this compound in the test: CC1(C)C(C=C(Cl)Cl)C1C(=O)OCc1cccc(Oc2ccccc2)c1 (centres undefined)
Reply | inactive

Ask | Which result was noted for this compound in the test: `Cc1ccc(S(=O)(=O)O)cc1C`
Reply | inactive

Ask | Which result was noted for this compound in the test: `CCC/C=C/C=O`
Reply | inactive

Cited source for all entries: PubChem BioAssay (Tox21)
